Every entry's value here was drawn from ChEMBL document CHEMBL1909046.

# assay.overview: DRUGMATRIX: Glutamate, AMPA radioligand binding (ligand: [3H] AMPA)
# Assay type: cell membranes, Rattus norvegicus, Wistar, Cerebral cortex, Membrane
# experimental.parameters: Not Active = under 50% inhibition at 10 µM
experimental.readout: Ki

[
  {
    "molecule": "c1ccc2[nH]c(-c3cscn3)nc2c1",
    "Ki": "Not Active"
  },
  {
    "molecule": "CN[C@H](CC(C)C)C(=O)N[C@H]1C(=O)N[C@@H](CC(N)=O)C(=O)N[C@H]2C(=O)N[C@H]3C(=O)N[C@H](C(=O)N[C@H](C(=O)O)c4cc(O)cc(O)c4-c4cc3ccc4O)[C@H](O)c3ccc(c(Cl)c3)Oc3cc2cc(c3O[C@@H]2O[C@H](CO)[C@@H](O)[C@H](O)[C@H]2O[C@H]2C[C@](C)(N)[C@H](O)[C@H](C)O2)Oc2ccc(cc2Cl)[C@H]1O",
    "Ki": "Not Active"
  },
  {
    "molecule": "COC(=O)[C@@H]1[C@H]2C[C@H]3c4[nH]c5ccccc5c4CCN3C[C@@H]2CC[C@@H]1O",
    "Ki": "Not Active"
  },
  {
    "molecule": "C=CC[C@@H]1/C=C(\\C)C[C@H](C)C[C@H](OC)[C@H]2O[C@@](O)(C(=O)C(=O)N3CCCC[C@H]3C(=O)O[C@H](/C(C)=C/[C@@H]3CC[C@@H](O)[C@H](OC)C3)[C@H](C)[C@@H](O)CC1=O)[C@H](C)C[C@@H]2OC [TACROLIMUS ANHYDROUS]",
    "Ki": "Not Active"
  },
  {
    "molecule": "CCC1(c2ccccc2)C(=O)NCNC1=O",
    "Ki": "Not Active"
  }
]

Now examine the next entry.
Ask: Please look at this molecule and report its Ki: Cn1cnc([N+](=O)[O-])c1Sc1ncnc2nc[nH]c12
Result: Not Active

----------
# system: UniProt P05181
# Sequence (P05181 whole entry): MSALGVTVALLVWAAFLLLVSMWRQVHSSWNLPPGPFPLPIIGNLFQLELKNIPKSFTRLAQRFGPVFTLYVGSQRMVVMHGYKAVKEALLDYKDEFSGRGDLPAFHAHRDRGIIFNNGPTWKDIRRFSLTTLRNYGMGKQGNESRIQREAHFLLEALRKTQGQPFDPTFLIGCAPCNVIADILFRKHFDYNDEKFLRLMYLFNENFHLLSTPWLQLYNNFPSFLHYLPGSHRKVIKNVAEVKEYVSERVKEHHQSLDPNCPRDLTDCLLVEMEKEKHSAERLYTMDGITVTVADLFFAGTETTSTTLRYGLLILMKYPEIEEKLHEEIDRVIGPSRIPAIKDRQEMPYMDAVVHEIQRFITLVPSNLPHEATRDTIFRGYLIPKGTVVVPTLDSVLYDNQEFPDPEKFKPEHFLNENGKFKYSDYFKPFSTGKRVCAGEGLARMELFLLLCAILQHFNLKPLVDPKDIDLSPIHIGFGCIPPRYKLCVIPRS
# experimental.parameters: bti-tn-5b1-4

[
  {
    "compound": "CC(CCc1ccccc1)NCC(O)c1ccc(O)c(C(N)=O)c1 (configuration not stated) [LABETALOL]",
    "system": "UniProt P05181",
    "IC50": "Not Active"
  },
  {
    "compound": "CN[C@H](CC(C)C)C(=O)N[C@H]1C(=O)N[C@@H](CC(N)=O)C(=O)N[C@H]2C(=O)N[C@H]3C(=O)N[C@H](C(=O)N[C@H](C(=O)O)c4cc(O)cc(O)c4-c4cc3ccc4O)[C@H](O)c3ccc(c(Cl)c3)Oc3cc2cc(c3O[C@@H]2O[C@H](CO)[C@@H](O)[C@H](O)[C@H]2O[C@H]2C[C@](C)(N)[C@H](O)[C@H](C)O2)Oc2ccc(cc2Cl)[C@H]1O [VANCOMYCIN]",
    "system": "UniProt P05181",
    "IC50": "Not Active"
  }
]

----------
# system: 5-hydroxytryptamine receptor 1B (Rattus norvegicus); note: in other assays of this panel Not Active means under 50% inhibition at 10 µM
# Sequence (P28564 whole entry): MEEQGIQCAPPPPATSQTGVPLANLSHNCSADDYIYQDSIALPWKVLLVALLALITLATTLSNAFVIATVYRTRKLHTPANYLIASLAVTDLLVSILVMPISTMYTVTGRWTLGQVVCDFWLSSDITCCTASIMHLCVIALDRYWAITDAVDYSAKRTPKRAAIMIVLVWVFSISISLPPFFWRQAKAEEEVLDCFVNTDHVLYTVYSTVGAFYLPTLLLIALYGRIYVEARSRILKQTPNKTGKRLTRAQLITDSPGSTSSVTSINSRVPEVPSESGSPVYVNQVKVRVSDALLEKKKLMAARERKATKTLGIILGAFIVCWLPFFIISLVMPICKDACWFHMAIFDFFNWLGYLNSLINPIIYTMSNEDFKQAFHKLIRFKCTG
# Assay type: cell membranes, Wistar, Cerebral cortex, Membrane
experimental.readout: IC50

Worked set:
[
  {
    "molecule": "O=C(CCCN1CCC(O)(c2ccc(Cl)cc2)CC1)c1ccc(F)cc1 [HALOPERIDOL]",
    "result": "Not Active"
  },
  {
    "molecule": "CC(=O)CCCCn1c(=O)c2c(ncn2C)n(C)c1=O [PENTOXIFYLLINE]",
    "result": "Not Active"
  },
  {
    "molecule": "CC[N+](CC)(CC)CCOc1cccc(OCC[N+](CC)(CC)CC)c1OCC[N+](CC)(CC)CC.[I-].[I-].[I-] [GALLAMINE TRIETHIODIDE]",
    "result": "Not Active"
  },
  {
    "molecule": "C=C1CC[C@H](O)C/C1=C/C=C1\\CCC[C@]2(C)[C@@H]([C@H](C)/C=C/[C@H](C)C(C)C)CC[C@@H]12 [ERGOCALCIFEROL]",
    "result": "Not Active"
  }
]

Ask: Please look at this molecule and report its IC50: CCOC(=O)OC(C)OC1=C(C(=O)Nc2ccccn2)N(C)S(=O)(=O)c2ccccc21 (centres undefined) [AMPIROXICAM]
Result: Not Active

Ask: Please look at this molecule and report its IC50: CC(C)NC[C@H](O)COc1cccc2[nH]ccc12
Result: Not Active

Ask: Please look at this molecule and report its IC50: O=C1CCc2cc(OCCCCc3nnnn3C3CCCCC3)ccc2N1 [CILOSTAZOL]
Result: Not Active

Ask: Please look at this molecule and report its IC50: OCc1ccccc1 [BENZYL ALCOHOL]
Result: Not Active

Ask: Please look at this molecule and report its IC50: Nc1ccc(S(=O)(=O)Nc2ccnn2-c2ccccc2)cc1 [SULFAPHENAZOLE]
Result: Not Active

----------
# assay.overview: DRUGMATRIX: GABAA, Muscimol, Central radioligand binding (ligand: [3H] Muscimol)
# Assay type: cell membranes, Rattus norvegicus, Wistar, Brain, Membrane
# experimental.parameters: Not Active = under 50% inhibition at 10 µM; read-out: Ki
experimental.readout: pKi
Lab note — pKi values are minus log10 of concentrations in M.

Ask: Please look at this compound and report its pKi: CN1[C@@H]2CC[C@H]1C[C@@H](OC(=O)c1c[nH]c3ccccc13)C2
Result: 5.62

----------
# assay.overview: DRUGMATRIX: beta-Lactamase enzyme inhibition (substrate: Nitrocefin)
# Design: species or system Bacillus cereus
# experimental.parameters: Not Active = under 50% inhibition at 10 µM
experimental.readout: IC50

Worked set:
[
  {
    "molecule": "COC(=O)C1=C(C)NC(C)=C(C(=O)OC)C1c1ccccc1[N+](=O)[O-]",
    "IC50": "Not Active"
  },
  {
    "molecule": "CCCCOC(=O)c1ccc(N)cc1",
    "IC50": "Not Active"
  },
  {
    "molecule": "CC(=O)CCCCn1c(=O)c2c(ncn2C)n(C)c1=O",
    "IC50": "Not Active"
  },
  {
    "molecule": "C=CC[C@@H]1/C=C(\\C)C[C@H](C)C[C@H](OC)[C@H]2O[C@@](O)(C(=O)C(=O)N3CCCC[C@H]3C(=O)O[C@H](/C(C)=C/[C@@H]3CC[C@@H](O)[C@H](OC)C3)[C@H](C)[C@@H](O)CC1=O)[C@H](C)C[C@@H]2OC [TACROLIMUS ANHYDROUS]",
    "IC50": "Not Active"
  },
  {
    "molecule": "CCC1(c2ccccc2)C(=O)NCNC1=O",
    "IC50": "Not Active"
  },
  {
    "molecule": "CC(C)[C@H](N)C(=O)OCCOCn1cnc2c(=O)nc(N)[nH]c21",
    "IC50": "Not Active"
  }
]

Now examine the next entry.
Ask: Please look at this molecule and report its IC50: O=C1CCc2cc(OCCCCc3nnnn3C3CCCCC3)ccc2N1
Result: Not Active

----------
# assay.overview: DRUGMATRIX: Nicotinic Acetylcholine radioligand binding (ligand: [125I] Epibatidine)
# Assay type: cell membranes, Membrane
# experimental.parameters: imr-32; Not Active = under 50% inhibition at 10 µM
experimental.readout: IC50

[
  {
    "molecule": "Cc1ccccc1N1CCN(CCc2nnc3n2CCCC3)CC1 [DAPIPRAZOLE]",
    "IC50": "Not Active"
  },
  {
    "molecule": "C=C1C(=O)O[C@@H]2C3O[C@]3(C)CC/C=C(\\C)CC[C@@H]12 (some centres undefined)",
    "IC50": "Not Active"
  },
  {
    "molecule": "OCc1ccccc1 [BENZYL ALCOHOL]",
    "IC50": "Not Active"
  },
  {
    "molecule": "C=C1CC[C@H](O)C/C1=C/C=C1\\CCC[C@]2(C)[C@@H]([C@H](C)/C=C/[C@H](C)C(C)C)CC[C@@H]12 [ERGOCALCIFEROL]",
    "IC50": "Not Active"
  },
  {
    "molecule": "CC1COc2c(N3CCN(C)CC3)c(F)cc3c(=O)c(C(=O)O)cn1c23 (centres undefined) [OFLOXACIN]",
    "IC50": "Not Active"
  }
]

Now examine the next entry.
Ask: Please look at this molecule and report its IC50: CC1(C)S[C@@H]2[C@H](NC(=O)[C@H](NC(=O)N3CCNC3=O)c3ccccc3)C(=O)N2[C@H]1C(=O)O [AZLOCILLIN]
Result: Not Active

----------
# system: Cholecystokinin receptor type A (Homo sapiens, UniProt P32238); note: in other assays of this panel Not Active means under 50% inhibition at 10 µM
# Sequence (P32238 whole entry): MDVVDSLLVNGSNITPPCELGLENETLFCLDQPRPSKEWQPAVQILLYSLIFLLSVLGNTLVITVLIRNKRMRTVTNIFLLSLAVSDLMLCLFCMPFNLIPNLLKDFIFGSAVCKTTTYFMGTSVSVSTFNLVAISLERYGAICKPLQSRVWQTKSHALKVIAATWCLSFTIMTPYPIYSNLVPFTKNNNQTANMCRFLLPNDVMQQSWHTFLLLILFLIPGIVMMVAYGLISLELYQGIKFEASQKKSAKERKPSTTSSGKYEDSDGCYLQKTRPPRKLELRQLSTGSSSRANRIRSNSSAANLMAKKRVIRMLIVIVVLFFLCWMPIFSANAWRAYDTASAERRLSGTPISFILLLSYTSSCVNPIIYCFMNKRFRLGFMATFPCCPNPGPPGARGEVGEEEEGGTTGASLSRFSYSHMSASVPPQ
# Assay type: cell membranes, Membrane
# experimental.parameters: 1321-n1
experimental.readout: IC50

Worked set:
[
  {
    "compound": "COc1ccc(CN(CCN(C)C)c2ccccn2)cc1",
    "result": "Not Active"
  },
  {
    "compound": "N=C(N)NCCCCNC(=N)N.O=S(=O)(O)O [ARCAINE SULFATE]",
    "result": "Not Active"
  },
  {
    "compound": "CC(C)(C)NC(=O)[C@@H]1CN(Cc2cccnc2)CCN1C[C@@H](O)C[C@@H](Cc1ccccc1)C(=O)N[C@H]1c2ccccc2C[C@H]1O.O",
    "result": "Not Active"
  },
  {
    "compound": "CCCC[C@@H](CC)COC(=O)c1ccccc1C(=O)OC[C@@H](CC)CCCC [BIS(2-ETHYLHEXYL)PHTHALATE]",
    "result": "Not Active"
  }
]

Ask: Report IC50 on Cholecystokinin receptor type A (Homo sapiens, UniProt P32238) for this entry: CN1C[C@H](C(=O)N[C@]2(C)O[C@@]3(O)[C@@H]4CCCN4C(=O)[C@H](Cc4ccccc4)N3C2=O)C=C2c3cccc4[nH]cc(c34)C[C@H]21
Result: Not Active

Ask: Report IC50 on Cholecystokinin receptor type A (Homo sapiens, UniProt P32238) for this entry: CC1COc2c(N3CCN(C)CC3)c(F)cc3c(=O)c(C(=O)O)cn1c23 (configuration not stated)
Result: Not Active

Ask: Report IC50 on Cholecystokinin receptor type A (Homo sapiens, UniProt P32238) for this entry: CN(N=O)C(=O)N[C@@H](C=O)[C@@H](O)[C@H](O)[C@H](O)CO
Result: Not Active
